Catalogue of MIC readings, one per entry.
- Test system: Escherichia coli
- EXPERIMENT_NOTES: Antimicrobial activity against Escherichia coli LA290R55 carrying ANT(2'') by tube dilution method
- Type: functional
METRIC: MIC (µg/mL)

COMPOUND	METRIC	REPORTED_RELATION	RECORDED_NUMBER
CN[C@@H]1[C@@H](O)[C@@H](O[C@@H]2[C@@H](O)[C@H](O[C@H]3OC(CN)=CC[C@H]3N)[C@@H](N)C[C@H]2N)OC[C@]1(C)O [SISOMICIN]	MIC	=	7.5
CN[C@@H]1[C@@H](O)[C@@H](O[C@@H]2[C@@H](O)[C@H](O[C@H]3OC(CO)=CC[C@H]3N)[C@@H](N)C[C@H]2N)OC[C@]1(C)O	MIC	>	25
CN[C@@H]1[C@@H](O)[C@@H](O[C@@H]2[C@@H](O)[C@H](O[C@H]3OC(CNCCO)=CC[C@H]3N)[C@@H](N)C[C@H]2N)OC[C@]1(C)O	MIC	=	7.5

###

- Test system: Entamoeba histolytica
- EXPERIMENT_NOTES: Antiprotozoal activity against Entamoeba histolytica JH
- Type: functional
The source made the active and inactive calls. The calls are words filed in the database; no cut-off is given here.
Outcomes: 1 (yes) = active, 0 (no) = inactive

COMPOUND	CATEGORY_LABEL
CN[C@@H]1[C@@H](O)[C@@H](O[C@@H]2[C@@H](O)[C@H](O[C@H]3OC(CN)=CC[C@H]3N)[C@@H](N)C[C@H]2N)OC[C@]1(C)O [SISOMICIN]	1 (yes)
CN[C@@H]1[C@@H](O)[C@@H](O[C@@H]2[C@@H](O)[C@H](O[C@H]3OC(CNC(C)(C)C)=CC[C@H]3N)[C@@H](N)C[C@H]2N)OC[C@]1(C)O	0 (no)
CN[C@@H]1[C@@H](O)[C@@H](O[C@@H]2[C@@H](O)[C@H](O[C@H]3OC(CNOC)=CC[C@H]3N)[C@@H](N)C[C@H]2N)OC[C@]1(C)O	0 (no)
CN[C@@H]1[C@@H](O)[C@@H](O[C@@H]2[C@@H](O)[C@H](O[C@H]3OC(CNCCc4ccccc4)=CC[C@H]3N)[C@@H](N)C[C@H]2N)OC[C@]1(C)O	0 (no)

###

Catalogue of MIC readings, one per entry.
- Tested on: Escherichia coli
- EXPERIMENT_NOTES: Antimicrobial activity against Escherichia coli LA290R55 carrying ANT(2'') by tube dilution method
- Assay type: functional

SMILES	MIC
CN[C@@H]1[C@@H](O)[C@@H](O[C@@H]2[C@@H](O)[C@H](O[C@H]3OC(CNCCc4ccccc4)=CC[C@H]3N)[C@@H](N)C[C@H]2N)OC[C@]1(C)O	> 25 µg/mL
CNCC1=CC[C@@H](N)[C@@H](O[C@H]2[C@H](O)[C@@H](O[C@H]3OC[C@](C)(O)[C@H](NC)[C@H]3O)[C@H](N)C[C@@H]2N)O1	17.5 µg/mL
CN[C@@H]1[C@@H](O)[C@@H](O[C@@H]2[C@@H](O)[C@H](O[C@H]3OC(CNC(C)(C)C)=CC[C@H]3N)[C@@H](N)C[C@H]2N)OC[C@]1(C)O	17.5 µg/mL

FYI, the data here is from ChEMBL document CHEMBL3244132.
